target: menin/MLL (terbium chelate-labeled menin, FITC-MBM1 peptide) (Homo sapiens, UniProt O00255, T541A); construct: Menin (a.a 1-610-6xhis tag, 2.3 mg/mL in 20 mM Hepes); experiment: Menin/MLL homogenous time-resolved fluorescence (HTRF) assay; settings: 30 min incubation
Sequence (O00255 with tags, fused parts or gaps T541A): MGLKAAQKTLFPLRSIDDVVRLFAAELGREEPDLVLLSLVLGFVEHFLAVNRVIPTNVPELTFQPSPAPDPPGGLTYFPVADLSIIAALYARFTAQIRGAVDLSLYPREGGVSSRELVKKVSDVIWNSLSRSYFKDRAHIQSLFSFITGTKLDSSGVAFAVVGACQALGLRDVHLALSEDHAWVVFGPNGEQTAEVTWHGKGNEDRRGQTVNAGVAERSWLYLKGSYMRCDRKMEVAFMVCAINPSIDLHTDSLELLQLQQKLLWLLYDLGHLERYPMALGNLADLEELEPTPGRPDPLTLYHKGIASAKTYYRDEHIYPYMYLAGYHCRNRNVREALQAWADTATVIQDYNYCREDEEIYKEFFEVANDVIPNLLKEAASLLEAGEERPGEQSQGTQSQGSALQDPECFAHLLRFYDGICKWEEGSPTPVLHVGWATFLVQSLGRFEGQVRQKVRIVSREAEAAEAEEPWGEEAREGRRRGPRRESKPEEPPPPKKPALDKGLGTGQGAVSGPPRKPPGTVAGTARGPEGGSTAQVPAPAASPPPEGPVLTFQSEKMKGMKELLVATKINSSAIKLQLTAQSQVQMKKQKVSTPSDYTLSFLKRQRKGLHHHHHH
property: IC50 (nM)

{"columns": ["molecule", "reading-unit", "observed-value"],
 "data": [
  ["Cc1cncc2c1c(C[C@@H]1CCN([C@H]3CCNC(=O)CC3)C1)cn2-c1ccc(F)cc1C(=O)N(C)C(C)C (single isomer, unassigned) [Compound 139a]", "nM", 0.122]
]}

[P] Cc1cncc2c1c(CC1CN(CC3CCC4(CC3)OCCO4)C1)cn2-c1ccc(F)cc1C(=O)N(C)C(C)C
[Q] Cc1cncc2c1c(CC1CCN(CC3CCN(C(=O)C(C)(C)O)CC3)CC1)cn2-c1ccc(F)cc1C(=O)N(C)C(C)C
[R] Cc1cncc2c1c(C[C@@H]1CCN(CC3CCOCC3)C1)cn2-c1ccc(F)cc1C(=O)N1CCC[C@@]1(C)CO (single isomer, unassigned) [Compound 362b]
[S] Cc1cncc2c1c(CC1CN(CC3CCOCC3)C1)cn2-c1ccc(F)cc1C(=O)N1CCC2CC21 (centres unmarked)
[T] CN=[S@@](=O)(c1cc(F)ccc1-n1cc(C[C@@H]2CCN(CC3CCN(C(C)=O)CC3)C2)c2c(C)cncc21)C(C)C (single isomer, unassigned) [Compound 128c]
Please put the entries in order of rising IC50. List each label, following the requested order.
S, R, Q, P, T
